tested on: Phakopsora pachyrhizi (strain containing the amino acid substitution F129L in the mitochondrial cytochrome b protein); assay: Use example 2: protective control of soybean rust on soybeans (PHAKPA P6), inoculation six days after spraying; format: in vivo; settings: % diseased leaf area on soybean, 16 ppm spray, inoculation six days after treatment, untreated controls usually >85 %
observable: PHAKPA Disease level (%) P6 at 16 ppm
Entry rule: numbers only, all in %.

Quick one: PHAKPA Disease level (%) P6 at 16 ppm for CNC(=O)/C(=N/OC)c1ccccc1CO/N=C(\C)C#Cc1ccccc1 ?
90

Quick one: PHAKPA Disease level (%) P6 at 16 ppm for CNC(=O)/C(=N/OC)c1ccccc1CO/N=C(\C)C#Cc1ccccc1C ?
0

Quick one: PHAKPA Disease level (%) P6 at 16 ppm for CO/C=C(/C(=O)OC)c1cccc(C)c1CO/N=C(\C)C#Cc1ccc(F)cc1C(=O)OC ?
53

Quick one: PHAKPA Disease level (%) P6 at 16 ppm for CO/N=C(/C(=O)OC)c1ccccc1CO/N=C(\C)C#Cc1ccc(Cl)cc1-c1ccc(F)cc1 ?
4

Quick one: PHAKPA Disease level (%) P6 at 16 ppm for CNC(=O)/C(=N/OC)c1ccccc1CO/N=C(\C)C#Cc1ccc(OCC(F)(F)F)cc1 ?
32

* * *

system: Phakopsora pachyrhizi (strain containing the amino acid substitution F129L in the mitochondrial cytochrome b protein); assay: Use example 2: protective control of soybean rust on soybeans (PHAKPA P6), inoculation six days after spraying; assay type: in vivo; conditions: % diseased leaf area on soybean, 16 ppm spray, inoculation six days after treatment, untreated controls usually >85 %
observable: PHAKPA Disease level (%) P6 at 16 ppm
Entry rule: numbers only, all in %.

INSERT INTO measurements (compound, observed_value) VALUES
  ('CO/C=C(/C(=O)OC)c1cccc(C)c1CO/N=C(\C)C#Cc1ccc(F)cc1 [Example 70]', 0);

Quick one: PHAKPA Disease level (%) P6 at 16 ppm for CNC(=O)/C(=N/OC)c1cccc(C)c1CO/N=C(\C)C#Cc1cccc(Cl)c1 [Example 77] ?
0

Quick one: PHAKPA Disease level (%) P6 at 16 ppm for CNC(=O)/C(=N/OC)c1ccccc1CO/N=C(\C)C#Cc1ccccc1OC(F)(F)F [Example 9] ?
5

Quick one: PHAKPA Disease level (%) P6 at 16 ppm for CNC(=O)/C(=N/OC)c1ccccc1CO/N=C(\C)C#Cc1cccc(OC(F)(F)F)c1 [Example 53] ?
0

Quick one: PHAKPA Disease level (%) P6 at 16 ppm for CO/N=C(/C(=O)OC)c1ccccc1CO/N=C(\C)C#Cc1ccc(C(F)(F)F)cc1 [Example 65] ?
70

Quick one: PHAKPA Disease level (%) P6 at 16 ppm for COC/C(C#Cc1ccc(Cl)cc1)=N\OCc1ccccc1/C(=N\OC)C(=O)OC [Example 113] ?
77

Quick one: PHAKPA Disease level (%) P6 at 16 ppm for CO/N=C(/C(=O)OC)c1ccccc1CO/N=C(\C)C#Cc1cccc(C)c1 [Example 43] ?
27

Quick one: PHAKPA Disease level (%) P6 at 16 ppm for CNC(=O)/C(=N/OC)c1ccccc1CO/N=C(\C)C#Cc1ccc(Cl)cc1F [Example 83] ?
22

Quick one: PHAKPA Disease level (%) P6 at 16 ppm for CO/N=C(/C(=O)OC)c1ccccc1CO/N=C(\C)C#Cc1cccc(F)c1 [Example 35] ?
25

Quick one: PHAKPA Disease level (%) P6 at 16 ppm for CNC(=O)/C(=N/OC)c1ccccc1CO/N=C(\C)C#Cc1c(Cl)cccc1Cl [Example 107] ?
15

Quick one: PHAKPA Disease level (%) P6 at 16 ppm for CO/N=C(/C(=O)OC)c1cccc(C)c1CO/N=C(\C)C#Cc1ccccc1OC(F)(F)F [Example 26] ?
6

Quick one: PHAKPA Disease level (%) P6 at 16 ppm for CNC(=O)/C(=N/OC)c1ccccc1CO/N=C(\C)C#Cc1ccccc1C(F)(F)F [Example 69] ?
2

Quick one: PHAKPA Disease level (%) P6 at 16 ppm for CNC(=O)/C(=N/OC)c1ccccc1CO/N=C(\C)C#Cc1ccccc1Br [Example 48] ?
2

Quick one: PHAKPA Disease level (%) P6 at 16 ppm for CNC(=O)/C(=N/OC)c1cccc(C)c1CO/N=C(\C)C#Cc1cccc(OC(F)(F)F)c1 [Example 27] ?
0

Quick one: PHAKPA Disease level (%) P6 at 16 ppm for CO/N=C(/C(=O)OC)c1ccccc1CO/N=C(\C)C#Cc1ccc(Br)cc1 [Example 54] ?
25

Quick one: PHAKPA Disease level (%) P6 at 16 ppm for CO/N=C(/C(=O)OC)c1cccc(C)c1CO/N=C(\C)C#Cc1ccccc1C(F)(F)F [Example 66] ?
30

Quick one: PHAKPA Disease level (%) P6 at 16 ppm for CNC(=O)/C(=N/OC)c1ccccc1CO/N=C(\C)C#Cc1ccc(Cl)cc1C(F)(F)F [Example 99] ?
0

Quick one: PHAKPA Disease level (%) P6 at 16 ppm for CNC(=O)/C(=N/OC)c1cccc(C)c1CO/N=C(\C)C#Cc1ccc(F)cc1 [Example 33] ?
0

Quick one: PHAKPA Disease level (%) P6 at 16 ppm for CNC(=O)/C(=N/OC)c1ccccc1CO/N=C(\C)C#Cc1ccc(Cl)cc1 [Example 4] ?
7

Quick one: PHAKPA Disease level (%) P6 at 16 ppm for CNC(=O)/C(=N/OC)c1cccc(C)c1CO/N=C(\C)C#Cc1ccccc1C [Example 49] ?
0
